Taken from the kinase profiling compilation of Christmann-Franck et al. (2016).

Readings of kinase still bound, per cent of control for the listed molecules
- System: PIK3CA (human), P42336 [E542K]
- Sequence (P42336 whole entry E542K, looked up): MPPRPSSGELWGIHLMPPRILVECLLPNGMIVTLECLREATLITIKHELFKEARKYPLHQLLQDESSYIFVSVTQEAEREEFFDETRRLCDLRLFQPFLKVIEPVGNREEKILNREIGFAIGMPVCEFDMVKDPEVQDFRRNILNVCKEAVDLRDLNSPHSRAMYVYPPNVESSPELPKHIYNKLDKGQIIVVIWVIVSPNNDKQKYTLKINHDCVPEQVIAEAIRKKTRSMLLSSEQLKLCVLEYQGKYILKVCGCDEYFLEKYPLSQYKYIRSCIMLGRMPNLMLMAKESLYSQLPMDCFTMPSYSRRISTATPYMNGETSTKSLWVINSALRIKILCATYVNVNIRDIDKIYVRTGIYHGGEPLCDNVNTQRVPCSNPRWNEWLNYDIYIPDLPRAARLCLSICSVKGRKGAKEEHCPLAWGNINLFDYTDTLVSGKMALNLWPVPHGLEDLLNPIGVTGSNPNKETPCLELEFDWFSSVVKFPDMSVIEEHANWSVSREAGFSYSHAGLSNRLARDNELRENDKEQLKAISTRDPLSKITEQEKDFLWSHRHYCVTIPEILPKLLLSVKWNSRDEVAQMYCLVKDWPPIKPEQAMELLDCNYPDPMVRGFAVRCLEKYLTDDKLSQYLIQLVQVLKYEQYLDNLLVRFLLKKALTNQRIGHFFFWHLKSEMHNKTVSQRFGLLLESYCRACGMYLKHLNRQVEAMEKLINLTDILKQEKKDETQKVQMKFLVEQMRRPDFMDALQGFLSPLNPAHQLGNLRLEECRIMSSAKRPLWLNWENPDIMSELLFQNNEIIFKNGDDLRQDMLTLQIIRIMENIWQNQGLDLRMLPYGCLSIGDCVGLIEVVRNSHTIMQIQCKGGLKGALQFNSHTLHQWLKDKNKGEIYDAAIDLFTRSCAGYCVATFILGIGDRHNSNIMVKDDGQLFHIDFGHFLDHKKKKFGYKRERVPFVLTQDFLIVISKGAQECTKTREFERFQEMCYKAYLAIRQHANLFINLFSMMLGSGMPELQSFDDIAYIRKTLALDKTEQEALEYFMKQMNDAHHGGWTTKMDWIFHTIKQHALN
- EXPERIMENT SUMMARY: KINOMEscan competition binding
- PARTICULARS: compound 10.0 µM
The reply should contain only the number, in %.

>  <ITEM SMILES>
CCN1CCN(Cc2ccc(Nc3ncc4c(n3)N(C)c3ccccc3C(=O)N4C)cc2C(F)(F)F)CC1

>  <UNIT DESCRIPTOR>
%

>  <READOUT NUMBER>
24

$$$$
>  <ITEM SMILES>
NC(=O)Nc1cc(-c2cccc(F)c2)sc1C(=O)N[C@@H]1CCCNC1

>  <UNIT DESCRIPTOR>
%

>  <READOUT NUMBER>
100

$$$$
>  <ITEM SMILES>
Cn1c(=O)n(-c2ccc(C(C)(C)C#N)cc2)c2c3cc(-c4cnc5ccccc5c4)ccc3ncc21

>  <UNIT DESCRIPTOR>
%

>  <READOUT NUMBER>
2.8

$$$$

Need kinase still bound, per cent of control, item `COc1cc2c(Nc3ccc(NC(=O)c4ccccc4)cc3)ncnc2cc1OCCCN1CCOCC1`
100

Need kinase still bound, per cent of control, item `CCN(CCO)CCCOc1ccc2c(Nc3cc(CC(=O)Nc4cccc(F)c4)[nH]n3)ncnc2c1`
100

----------
Readings of kinase still bound, per cent of control for the listed compounds
- TEST SYSTEM: MARK4 (human)
- EXPERIMENT SUMMARY: KINOMEscan competition binding
- PARTICULARS: compound 10.0 µM
The reply should contain only the number, in %.

Need kinase still bound, per cent of control, item CC1=C(C(=O)Nc2cc3cn[nH]c3cc2F)C(c2ccc(C(F)(F)F)cc2)CC(=O)N1 (configuration not stated)
100

Need kinase still bound, per cent of control, item `COc1cc2c(Nc3ccc(NC(=O)c4ccccc4)cc3)ncnc2cc1OCCCN1CCOCC1`
100

Need kinase still bound, per cent of control, item `COc1cc(N2CCC(C(N)=O)CC2)ccc1Nc1nc(N)c(Cl)c(Nc2ccccc2S(=O)(=O)C(C)C)n1`
100

----------
- TEST SYSTEM: CAMK2A (human)
- EXPERIMENT SUMMARY: KINOMEscan competition binding
- PARTICULARS: compound 10.0 µM
Readings of kinase still bound, per cent of control for the listed molecules
The reply should contain only the number, in %.

Consider the worked cases shown below.
>  <MOLECULE>
CCOc1cc(N2CCC(O)CC2)ccc1Nc1ncc2c(n1)N(C)c1ccccc1C(=O)N2C

>  <kinase still bound, per cent of control / %>
100

$$$$
>  <MOLECULE>
COc1ccc(N(C(=O)Oc2cc(C(=O)Nc3cccc(C(F)(F)F)c3)ccc2C)c2ccnc(Nc3ccc(N4CCN(C)CC4)cc3)n2)c(OC)c1

>  <kinase still bound, per cent of control / %>
100

$$$$
>  <MOLECULE>
COc1cc2ncnc(Nc3cccc(Cl)c3)c2cc1OC

>  <kinase still bound, per cent of control / %>
62

$$$$
>  <MOLECULE>
CCN1CCN(Cc2ccc(NC(=O)c3ccc(C)c(/C=C/c4cnc5[nH]ccc5c4OC)c3)cc2C(F)(F)F)CC1

>  <kinase still bound, per cent of control / %>
100

$$$$

Need kinase still bound, per cent of control, item COc1cc(C)c(Sc2cnc(NC(=O)c3ccc(CNC(C)C(C)C)cc3)s2)cc1C(=O)N1CCN(C(C)=O)CC1 (stereo unspecified)
100

Need kinase still bound, per cent of control, item CC1=C(C(=O)Nc2cc3cn[nH]c3cc2F)C(c2ccc(C(F)(F)F)cc2)CC(=O)N1 (stereo unspecified)
100

----------
Readings of kinase still bound, per cent of control for the listed compounds
- TEST SYSTEM: DCLK1 (human)
- EXPERIMENT SUMMARY: KINOMEscan competition binding
- PARTICULARS: compound 10.0 µM
The reply should contain only the number, in %.

>  <ITEM SMILES>
COc1cc(N2CCC(C(N)=O)CC2)ccc1Nc1nc(N)c(Cl)c(Nc2ccccc2S(=O)(=O)C(C)C)n1

>  <TEST SYSTEM>
DCLK1 (human)

>  <MEASURED QUANTITY>
kinase still bound, per cent of control

>  <READOUT NUMBER>
18

$$$$
>  <ITEM SMILES>
CCc1nc(-c2cccc(C)c2)c(-c2ccnc(NC(=O)c3ccccc3)c2)s1

>  <TEST SYSTEM>
DCLK1 (human)

>  <MEASURED QUANTITY>
kinase still bound, per cent of control

>  <READOUT NUMBER>
96

$$$$

Need kinase still bound, per cent of control, item `O=c1[nH]c2ccccc2n1C1CCN(Cc2ccc(-c3nc4cc5[nH]cnc5cc4nc3-c3ccccc3)cc2)CC1`
86

----------
- TEST SYSTEM: UniProt P09769
- Sequence (P09769 whole entry, looked up): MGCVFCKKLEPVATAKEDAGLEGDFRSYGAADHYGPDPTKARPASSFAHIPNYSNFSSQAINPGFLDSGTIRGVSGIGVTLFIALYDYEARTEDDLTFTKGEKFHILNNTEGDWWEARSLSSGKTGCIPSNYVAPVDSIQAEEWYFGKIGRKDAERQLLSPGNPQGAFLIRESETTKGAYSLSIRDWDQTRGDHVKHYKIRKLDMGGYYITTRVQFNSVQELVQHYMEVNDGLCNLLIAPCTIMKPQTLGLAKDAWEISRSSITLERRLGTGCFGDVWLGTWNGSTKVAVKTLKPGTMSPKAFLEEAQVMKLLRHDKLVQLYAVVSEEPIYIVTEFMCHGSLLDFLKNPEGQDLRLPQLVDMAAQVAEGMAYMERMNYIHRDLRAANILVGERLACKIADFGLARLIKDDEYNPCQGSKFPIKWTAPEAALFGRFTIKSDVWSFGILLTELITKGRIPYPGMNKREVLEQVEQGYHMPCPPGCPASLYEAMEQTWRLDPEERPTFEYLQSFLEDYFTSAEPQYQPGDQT
- EXPERIMENT SUMMARY: KINOMEscan competition binding
- PARTICULARS: compound 10.0 µM
MEASURED QUANTITY: kinase still bound, per cent of control (%)
The reply should contain only the number, in %.

Consider the worked cases shown below.
>  <ITEM SMILES>
COc1cc2ncnc(Nc3cccc(Cl)c3)c2cc1OC

>  <READOUT NUMBER>
32

$$$$
>  <ITEM SMILES>
N#C/C(=C1/Nc2ccccc2S1)c1ccnc(NCCc2cccnc2)n1

>  <READOUT NUMBER>
100

$$$$
>  <ITEM SMILES>
Cc1cn(-c2cc(C(=O)Nc3ccc(C)c(NC(=O)c4ccno4)c3)cc(C(F)(F)F)c2)cn1

>  <READOUT NUMBER>
23

$$$$
>  <ITEM SMILES>
CCc1nc(-c2cccc(C)c2)c(-c2ccnc(NC(=O)c3ccccc3)c2)s1

>  <READOUT NUMBER>
52

$$$$
>  <ITEM SMILES>
COc1ccc(N(C(=O)Oc2cc(C(=O)Nc3cccc(C(F)(F)F)c3)ccc2C)c2ccnc(Nc3ccc(N4CCN(C)CC4)cc3)n2)c(OC)c1

>  <READOUT NUMBER>
1.2

$$$$

Need kinase still bound, per cent of control, item `C=CC(=O)Nc1ccc(C(=O)c2sc(Nc3ccc(N4CCN(C)CC4)cc3OC)nc2N)cc1`
91

Need kinase still bound, per cent of control, item `CCCS(=O)(=O)Nc1ccc(F)c(C(=O)c2c[nH]c3ncc(Cl)cc23)c1F`
8.4

Need kinase still bound, per cent of control, item `N#Cc1cc(-c2ccnc(Nc3ccc(-n4cnc(-c5cccnc5)n4)cc3)n2)cc(N2CCOCC2)c1`
54

Need kinase still bound, per cent of control, item `CCOc1cc(N2CCC(O)CC2)ccc1Nc1ncc2c(n1)N(C)c1ccccc1C(=O)N2C`
100

----------
- System: MET (human), P08581 [M1250T]
- EXPERIMENT SUMMARY: KINOMEscan competition binding
- PARTICULARS: compound 10.0 µM
Readings of kinase still bound, per cent of control for the listed molecules
The reply should contain only the number, in %.

Consider the worked cases shown below.
>  <ITEM SMILES>
O=C1NC(=O)/C(=C/c2ccc3nccc(-c4ccncc4)c3c2)S1

>  <TEST SYSTEM>
MET (human), P08581 [M1250T]

>  <UNIT DESCRIPTOR>
%

>  <kinase still bound, per cent of control>
40

$$$$
>  <ITEM SMILES>
CC(=O)c1c(C)c2cnc(Nc3ccc(N4CCNCC4)cn3)nc2n(C2CCCC2)c1=O

>  <TEST SYSTEM>
MET (human), P08581 [M1250T]

>  <UNIT DESCRIPTOR>
%

>  <kinase still bound, per cent of control>
41

$$$$

# input for lookup
Need kinase still bound, per cent of control, item `CCc1nc(-c2cccc(C)c2)c(-c2ccnc(NC(=O)c3ccccc3)c2)s1`
100

----------
Readings of kinase still bound, per cent of control for the listed compounds
- TEST SYSTEM: ROS1 (human) (UniProt P08922)
- Sequence (P08922 whole entry, looked up): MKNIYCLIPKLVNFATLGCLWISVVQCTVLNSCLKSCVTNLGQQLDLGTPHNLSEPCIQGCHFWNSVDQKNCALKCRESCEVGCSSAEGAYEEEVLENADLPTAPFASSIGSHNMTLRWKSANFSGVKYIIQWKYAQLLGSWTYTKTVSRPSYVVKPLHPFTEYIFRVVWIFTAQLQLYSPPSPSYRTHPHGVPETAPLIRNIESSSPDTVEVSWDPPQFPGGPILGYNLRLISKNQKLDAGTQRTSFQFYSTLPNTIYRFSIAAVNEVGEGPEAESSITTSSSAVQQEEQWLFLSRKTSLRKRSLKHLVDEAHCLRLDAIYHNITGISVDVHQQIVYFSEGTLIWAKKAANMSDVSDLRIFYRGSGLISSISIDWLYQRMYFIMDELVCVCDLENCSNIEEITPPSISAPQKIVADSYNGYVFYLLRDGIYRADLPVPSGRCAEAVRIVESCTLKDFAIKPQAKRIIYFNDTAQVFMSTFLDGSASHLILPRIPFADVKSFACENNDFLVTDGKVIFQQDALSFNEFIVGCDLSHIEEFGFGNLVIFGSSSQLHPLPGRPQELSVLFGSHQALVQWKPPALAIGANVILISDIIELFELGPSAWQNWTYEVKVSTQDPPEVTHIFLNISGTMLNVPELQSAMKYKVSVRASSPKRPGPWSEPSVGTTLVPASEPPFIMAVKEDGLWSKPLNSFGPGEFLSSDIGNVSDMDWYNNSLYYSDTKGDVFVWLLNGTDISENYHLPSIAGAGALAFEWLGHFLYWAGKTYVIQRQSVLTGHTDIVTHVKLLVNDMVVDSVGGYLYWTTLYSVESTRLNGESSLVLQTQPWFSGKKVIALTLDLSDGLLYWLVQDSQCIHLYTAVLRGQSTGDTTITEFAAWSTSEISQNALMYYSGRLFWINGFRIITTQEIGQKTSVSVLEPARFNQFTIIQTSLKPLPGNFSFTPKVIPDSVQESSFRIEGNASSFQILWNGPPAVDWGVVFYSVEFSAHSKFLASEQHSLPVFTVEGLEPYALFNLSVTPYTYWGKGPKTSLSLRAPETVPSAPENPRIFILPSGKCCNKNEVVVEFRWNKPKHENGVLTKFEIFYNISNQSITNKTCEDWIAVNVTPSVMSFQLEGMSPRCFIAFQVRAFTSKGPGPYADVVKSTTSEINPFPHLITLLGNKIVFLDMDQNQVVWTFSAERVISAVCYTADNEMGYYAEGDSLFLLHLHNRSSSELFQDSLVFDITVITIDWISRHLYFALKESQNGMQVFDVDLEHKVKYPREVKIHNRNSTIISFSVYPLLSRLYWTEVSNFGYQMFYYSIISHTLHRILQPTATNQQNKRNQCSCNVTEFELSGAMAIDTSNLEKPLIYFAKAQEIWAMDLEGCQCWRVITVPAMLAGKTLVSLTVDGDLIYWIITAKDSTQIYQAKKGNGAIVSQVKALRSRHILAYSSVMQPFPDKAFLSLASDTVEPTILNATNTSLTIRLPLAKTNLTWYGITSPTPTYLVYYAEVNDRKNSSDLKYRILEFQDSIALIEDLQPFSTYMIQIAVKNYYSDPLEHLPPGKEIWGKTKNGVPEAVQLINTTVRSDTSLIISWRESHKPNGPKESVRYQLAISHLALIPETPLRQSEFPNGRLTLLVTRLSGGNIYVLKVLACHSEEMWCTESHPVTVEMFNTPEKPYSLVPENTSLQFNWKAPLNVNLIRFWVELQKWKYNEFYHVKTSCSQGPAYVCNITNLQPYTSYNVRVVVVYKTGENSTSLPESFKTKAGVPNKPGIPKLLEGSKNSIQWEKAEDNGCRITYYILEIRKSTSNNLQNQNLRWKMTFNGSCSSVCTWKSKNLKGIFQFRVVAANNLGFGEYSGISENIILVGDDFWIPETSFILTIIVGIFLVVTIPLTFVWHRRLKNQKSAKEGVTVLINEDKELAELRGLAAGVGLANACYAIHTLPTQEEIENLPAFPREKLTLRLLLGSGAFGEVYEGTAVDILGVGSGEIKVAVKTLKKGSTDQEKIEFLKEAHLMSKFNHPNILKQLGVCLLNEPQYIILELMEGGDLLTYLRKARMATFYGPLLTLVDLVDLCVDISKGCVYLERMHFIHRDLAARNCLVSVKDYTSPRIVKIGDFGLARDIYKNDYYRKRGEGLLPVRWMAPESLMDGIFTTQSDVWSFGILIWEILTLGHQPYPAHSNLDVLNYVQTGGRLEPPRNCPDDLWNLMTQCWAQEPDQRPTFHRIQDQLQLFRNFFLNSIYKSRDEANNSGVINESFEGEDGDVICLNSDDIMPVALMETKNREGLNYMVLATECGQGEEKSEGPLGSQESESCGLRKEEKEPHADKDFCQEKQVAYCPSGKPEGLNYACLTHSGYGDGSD
- EXPERIMENT SUMMARY: KINOMEscan competition binding
- PARTICULARS: compound 10.0 µM
The reply should contain only the number, in %.

>  <COMPOUND>
CNC(=O)Nc1ccc(-c2nc(N3CC4CCC(C3)O4)c3cnn(C4CCC5(CC4)OCCO5)c3n2)cc1

>  <UNIT DESCRIPTOR>
%

>  <kinase still bound, per cent of control>
81

$$$$
>  <COMPOUND>
N#C/C(=C1/Nc2ccccc2S1)c1ccnc(NCCc2cccnc2)n1

>  <UNIT DESCRIPTOR>
%

>  <kinase still bound, per cent of control>
100

$$$$
>  <COMPOUND>
COc1cc(C)c(Sc2cnc(NC(=O)c3ccc(CNC(C)C(C)C)cc3)s2)cc1C(=O)N1CCN(C(C)=O)CC1 (stereo not given)

>  <UNIT DESCRIPTOR>
%

>  <kinase still bound, per cent of control>
100

$$$$
>  <COMPOUND>
COc1cc2ncnc(Nc3cccc(Cl)c3)c2cc1OC

>  <UNIT DESCRIPTOR>
%

>  <kinase still bound, per cent of control>
61

$$$$

Need kinase still bound, per cent of control, item `C=CC(=O)Nc1ccc(C(=O)c2sc(Nc3ccc(N4CCN(C)CC4)cc3OC)nc2N)cc1`
38
